# assay-explanation: 384-well plate pilot, post-Golgi transport modulator project, inhibition of yeast transport mutant growth (AID 636)
# protocol-conditions: absorbance 615 nm, about 18 h, stronger effect = higher value
Below, each entry is listed alongside its reported inhibition.
parameter-measured: inhibition (%)

>>> measurement("O=C(CSc1nnc2scc(-c3ccccc3)n12)Nc1nsc(-c2ccccc2)n1")
-6.53
>>> measurement("O=C(O)c1ccc2c3c(ncnc13)-c1ccccc1C2=O")
5.51
>>> measurement("Fc1cccc(NCc2cn3ccccc3n2)c1")
-5

----------
# assay-explanation: growth suppression of yeast trafficking mutant, preliminary HTS, modulators of trafficking downstream of Golgi apparatus project, 1536-format plate, OD 615 nm (AID 637)
# protocol-conditions: yeast transport mutant growth, absorbance 615 nm, 18 h; stronger effect = higher value
parameter-measured: inhibition (%)

>>> measurement("COc1ccc(Cl)cc1NC(=O)CSc1nncn1-c1cccnc1")
-3.27
>>> measurement("Cn1c2c(c(=O)[nH]c1=O)C(NC(=O)c1ccco1)(C(F)(F)F)C(=O)N2 (stereo not given)")
0.66
>>> measurement("O=C(CSc1nnc(C2COc3ccccc3O2)o1)N1CCCc2ccccc21 (stereo not given)")
-4
>>> measurement("COCCn1c(N)c(C(=O)Nc2sc3c(c2C(=O)OC)CCCC3)c2nc3ccccc3nc21")
3.65
>>> measurement("CCn1c(SCC(=O)Nc2ccc3c(c2)OCO3)nnc1-c1cnccn1")
-0.73
>>> measurement("COc1ccccc1NC(=O)c1oc2ccccc2c1NC(=O)c1cc(OC)c(OC)c(OC)c1")
-2.1
>>> measurement("COCCn1cc(C(=O)NCCCN2CCC(C)CC2)c2c3ccccc3n(C)c2c1=O")
1.11
>>> measurement("CCOc1ccccc1N1CC(O)=C(c2nc3ccccc3s2)C1=N")
2.36
>>> measurement("O=C(CCCn1c(=O)c2sccc2n(CC(=O)NCc2ccco2)c1=O)NCc1ccco1")
2.54
>>> measurement("CC1(C)CC(=O)C2=C(C1)NC(=O)CC2C(=O)NCc1ccc(F)cc1 (stereo not given)")
1.64
>>> measurement("Cc1ccc(S(=O)(=O)c2cc3c(=O)n4ccccc4nc3n(CC3CCCO3)c2=N)cc1C (stereo not given)")
2.95
>>> measurement("CCOC(=O)N1CCC(=C2c3ccc(Cl)cc3CCc3cccnc32)CC1")
12.2
>>> measurement("Cc1ccc(OCC(=O)N2CCN(C(=O)CCC3CCCC3)CC2)cc1")
-2.33
>>> measurement("Cc1cc(Nc2ccccc2)n(-c2ccccc2)n1")
-6.61
>>> measurement("O=C(O)c1ccc(NC(=O)c2cccs2)cc1")
-4.55
>>> measurement("CCOC(=O)N1CCN(Cc2ccccc2F)CC1")
2.3
>>> measurement("COc1ccc(C(=O)Nc2ccc(Cl)c(Cl)c2)c(OC)n1")
-4.36
>>> measurement("CCOC(=O)CSc1nnc(-c2ccc(NS(=O)(=O)c3ccc(C)cc3)cc2)o1")
-5.67
>>> measurement("COc1cccc(Nc2nc(=O)[nH]nc2C)c1")
8.57
>>> measurement("O=C(Nc1cccc(-c2nnc(-c3ccccc3)o2)c1)C1CCCCC1")
3.55
>>> measurement("COc1ccc(-c2nc(CS(=O)CC(=O)N3CCCC3)c(C)o2)cc1 (stereo not given)")
3.77
>>> measurement("CCOc1ncccc1C(=O)Nc1ccc(Cl)cc1")
0.49
>>> measurement("CCn1c(=N)n(CC(=O)c2ccco2)c2ccccc21")
-4
>>> measurement("CN(C(=O)C1CCCO1)c1nnc(-c2ccncc2)s1 (stereo not given)")
-1.82
>>> measurement("CC(C)n1c(=NC(=O)c2ccco2)c(C#N)cc2c(=O)n3ccccc3cc21")
-6.61
>>> measurement("Cc1nc(C)c(C(=O)C2=C(O)C(=O)N(CCCn3ccnc3)C2c2ccccc2)s1 (stereo not given)")
-2.54
>>> measurement("CCOC(=O)CSc1nnc(CNC(=O)c2ccc(S(=O)(=O)N3CCCC3)cc2)n1C")
0.63
>>> measurement("O=C(c1ccco1)N1CCN(CCCCN2C(=O)c3ccccc3C2=O)CC1")
0.32
>>> measurement("Cc1ccnc(N2CCN(C(=O)CSc3nc4ccccc4nc3N3CCCCC3)CC2)c1")
-2.83
>>> measurement("COc1ccc(CC(=O)OCn2nnc3ccccc3c2=O)cc1")
-5.56
>>> measurement("c1ccc(CC2CCN(Cc3nc(-c4ccccc4)no3)CC2)cc1")
0.95
>>> measurement("CCCOc1ccccc1C1CC(=O)Nc2cc3c(cc21)OCCO3 (stereo not given)")
-2.3
>>> measurement("OC(CN1CCOCC1)Cn1c(-c2cccc(Cl)c2)nc2ccccc21 (stereo not given)")
-1.11
>>> measurement("Cc1c(C(=O)NCc2ccccn2)sc2nc(-c3ccc(F)cc3)cn12")
3.77
>>> measurement("CC(=O)Nc1sc2c(c1C#N)CCCCC2")
-2.54

----------
# assay-explanation: reversal of MRP1-mediated doxorubicin resistance, pilot screen, H69AR cells, doxorubicin co-treatment (AID 601)
# protocol-conditions: H69AR cells + 2 uM doxorubicin, CellTiter-Glo, 72 h; at 10 µM; stronger effect = higher value
The source made the active and inactive calls.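 The calls were made as follows: active = viability loss from added drug above about 55%, and viability with drug at most 40%, in both replicates (limit read from the data, passing the limit was not always enough); inconclusive = both conditions met in only one replicate; inactive = neither replicate meets both conditions.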 Peptide text beside a SMILES is read from it. * marks the point of attachment. Boc = CC(C)(C)OC(=O)*
Below, each entry is listed alongside its reported differential viability (reversal).
parameter-measured: differential viability (reversal)

>>> measurement("CC(C)N(O)C(=O)NC(C)(C)C")
"-5.12% (inactive)"
>>> measurement("CCOC(=O)Cc1csc(NC(=O)CSc2nnc(C(C)C)n2CC)n1")
"1.63% (inactive)"
>>> measurement("COC(=O)Cn1c(CCS(=O)(=O)c2ccc(C)cc2)nc2ccccc21")
"6.58% (inactive)"
>>> measurement("O=C(CN1CCN(c2nc(-c3ccc(Cl)cc3)cs2)CC1)NCc1ccco1")
"3.06% (inactive)"
>>> measurement("CCC(=O)Nc1cc(C)c(NC(=O)C23CC4CC(CC(C4)C2)C3)cn1")
"8.51% (inactive)"
>>> measurement("Cc1ccc(-c2nnc(SC(C)C#N)n2N)cc1 (centres undefined)")
"9.2% (inactive)"
>>> measurement("O=C(c1cnn2c(C(F)F)cc(-c3ccccc3)nc12)N1CCN2CCCC2C1 (centres undefined)")
"-1.71% (inactive)"
>>> measurement("CCc1nc(C)ccc1OCC(=O)O")
"-12.6% (inactive)"
>>> measurement("Nc1ncnc2c1ncn2[C@@H]1O[C@H](CO)[C@@H](O)[C@H]1O")
"25.9% (inactive)"
>>> measurement("COc1cccc(CN2C(=O)C3(C(C#N)=C(N)OC4=C3C(=O)CCC4)c3ccccc32)c1 (centres undefined)")
"-2.01% (inactive)"
>>> measurement("CS(=O)(=O)NCC(c1cccnc1)N1CCN(c2ccc(F)cc2)CC1 (centres undefined)")
"0.865% (inactive)"
>>> measurement("O=C1NC(c2cccnc2)C(C(=O)c2cccs2)C(O)(C(F)(F)F)N1 (centres undefined)")
"4.9% (inactive)"
>>> measurement("O=C(NCc1ccccc1)c1cc(-c2ccco2)on1")
"16.6% (inactive)"
>>> measurement("O=C(Nc1ncc2c(n1)CC(c1ccccc1)CC2=O)c1ccco1 (centres undefined)")
"5.16% (inactive)"
>>> measurement("C=CCn1c(COc2cccc(C)c2)nnc1SCC(=O)NC(=O)NCc1ccco1")
"-3.14% (inactive)"
>>> measurement("CS(=O)(=O)N1CCCC(C(=O)N2CCOCC2)C1 (centres undefined)")
"4.13% (inactive)"
>>> measurement("COC(=O)CSc1nnc(-c2cccs2)n1-c1ccc(Cl)cc1")
"6.75% (inactive)"
>>> measurement("CC(C)OC(=O)C1C2C=CC3(CN(Cc4cccs4)C(=O)C13)O2 (centres undefined)")
"-3.73% (inactive)"
>>> measurement("COc1ccc(CNC(=O)Cn2nc(C(F)(F)F)c3c2CCC3)cc1")
"11.9% (inactive)"
>>> measurement("Cc1cc(NCC2CCCO2)n2c(nc3ccccc32)c1C#N (centres undefined)")
"38.9% (inactive)"
>>> measurement("CCC(C)(C)n1nnnc1C(c1cc2cc(C)ccc2[nH]c1=O)N1CCCC1 (centres undefined)")
"9.6% (inactive)"
>>> measurement("Cc1cc(C)cc(N2C(=O)C3C4C=CC(C4)C3C2=O)c1 (centres undefined)")
"7.94% (inactive)"
>>> measurement("CCOC(=O)N1CCN(C(=O)CN(Cc2ccccc2)S(=O)(=O)c2ccc(OC)c(C)c2)CC1")
"-7.75% (inactive)"
>>> measurement("COc1ccc(Cl)cc1C(=O)NCCc1ccc(S(=O)(=O)NC(=O)NC2CCCCC2)cc1")
"-9.18% (inactive)"
>>> measurement("N#Cc1c(N2CCCC2)nc(N)c2c(N)nc(N3CCCC3)cc12")
"-29% (inactive)"
>>> measurement("O=c1c2cnn(-c3ccccc3)c2ncn1/N=C/c1ccncc1")
"18.9% (inactive)"
>>> measurement("COC(=O)c1nc(N)sc1-c1ccccc1")
"13.3% (inactive)"
>>> measurement("Cc1nc(C)c(C(=O)C2=C(O)C(=O)N(CCN3CCOCC3)C2c2ccco2)s1 (centres undefined)")
"-3.34% (inactive)"
>>> measurement("O=C1OC(c2ccc(O)cc2)(c2ccc(O)cc2)c2ccccc21")
"4.57% (inactive)"
>>> measurement("COc1cc(NC(=O)c2cccs2)cc(OC)c1")
"13.6% (inactive)"
>>> measurement("COc1ccc(N2C(=O)c3cccc4cccc(c34)C2=O)nn1")
"-7.67% (inactive)"
>>> measurement("CSCCC(NC(=O)OC(C)(C)C)C(=O)NC(CC(C)C)C(N)=O (stereo not drawn) (Boc-Met-Leu-NH2; configuration not given here)")
"1.58% (inactive)"
>>> measurement("COc1cccc(-c2nnc(SCC(N)=O)n2-c2ccc(Cl)cc2)c1")
"4.49% (inactive)"
>>> measurement("CCOC(=O)N(C)c1ccc(C(O)(C(F)(F)F)C(F)(F)F)cc1")
"5.16% (inactive)"
>>> measurement("CCOc1ccc2c(c1)n(CO)c(=S)n2CO")
"2.06% (inactive)"
>>> measurement("N#CCc1ccc(NC(=O)Nc2cccc(Cl)c2)cc1")
"-12.1% (inactive)"
>>> measurement("O=C(NCc1ccccc1)N[C@@H](Cc1ccccc1)C(=O)O")
"3.32% (inactive)"
>>> measurement("O=C(COc1ccc(S(=O)(=O)NC2CCCCC2)cc1)NCc1ccccn1")
"-3% (inactive)"
>>> measurement("Cn1c(=O)[nH]c(=O)c2c1nc(Br)n2CCCSc1nc2ccccc2o1")
"-9.42% (inactive)"
